B1: E3 ubiquitin-protein ligase NEDD4-like, residues 539 to 589; numbered along this chain, Q96PU5 (parent)
chain: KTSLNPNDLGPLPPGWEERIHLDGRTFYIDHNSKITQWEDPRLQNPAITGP

Variants of: B1
Test: abundance fitness (aPCA) (normalised: wild type 0, dead -1); higher = more abundant; growth selection in yeast, the domain comes from the species named
Conditions: Homo sapiens
So I've got a bunch of variants here, and I need their abundance fitness values.
Answers are plain numbers.

Recorded results for 2 variants are shown here.
T36H = 0.032
K1H = -0.704

// switching to the query variant
Please look at this variant and report its abundance fitness: `K1R`
-0.12
